Exercise: state measured IC50 for each of the compounds provided.
target: human CGT (Homo sapiens, UniProt Q16880); assay: CGT Enzyme Assay (Biological Example 2, RapidFire/MS/MS method with 0.01% Tween 80 added); assay type: biochemical; conditions: enzymatic assay, CHO/CGT lysate

For CC1(C)[C@H](c2cccc(C(F)(F)F)c2)N(c2ccc(Cl)cc2)C(=O)N1c1ccc(Cl)cc1 , what is its reported IC50?
< 1 µM

Give the measured IC50 of C[C@@]1(C(F)(F)F)[C@H](c2cccc(OC(F)(F)F)c2)N(c2ccc(C#N)cc2)C(=O)N1c1ccc(C#N)cc1 .
< 1 µM

Fill in the blank: the reported IC50 of COC[C@]1(C)[C@H](c2cccc(OC(F)(F)F)c2)N(c2ccc(Cl)cc2)C(=O)N1c1ccc(Cl)cc1 is ____.
< 1 µM

// lookup IC50 for C[C@@]1(C(F)(F)F)[C@H](c2cccc(C#N)c2)N(c2ccc(Cl)cc2)C(=O)N1c1ccc(Cl)cc1
10 to 30 µM

Need IC50 of C[C@H]1[C@@H](c2ccccc2)N(c2ccc(Br)cc2)C(=O)N1c1ccc(Br)cc1 , thanks.
1 to 10 µM

Report IC50 for O=C1N(c2ccc(Cl)cc2)[C@@H]2CCC[C@]2(c2cccc(OC(F)F)c2)N1c1ccc(Cl)cc1 please.
10 to 30 µM

Fill in the blank: the reported IC50 of Cc1ccc(N2C(=O)N(c3ccc(C#N)cc3)[C@@H](c3cccc(C#N)c3)C23COC3)cc1 is ____.
1 to 10 µM

====

molecular target: human CGT (Homo sapiens); assay: Assay 1: CGT Enzymatic Assay (RapidFire/MS/MS, 0.01% Tween 80); assay type: biochemical; settings: Table 1, Compounds of Formula (I) and Formula (II); CGT enzymatic assay; read-out: IC50
pIC50: −log10 of the molar value.
MEASURED PROPERTY: pIC50

Could you tell me which pIC50 is on file for Cc1cccc(C2(O)[C@@H](C)N(c3ccc(Br)cc3)C(=O)N2c2ccc(Br)cc2)c1 (stereo partly shown) ?
> 6.00

Quick check: pIC50 of CCc1ccc(N2C(=O)N(c3ccc(CC)cc3)C(O)(c3cccc(C#N)c3)[C@@H]2C)cc1 (single isomer, unassigned) ?
4.30 to 5.00

Any idea what its pIC50 is? The molecule is O=C1N(c2ccc(Cl)cc2)CC(O)(c2cccc(Br)c2)N1c1ccc(Cl)cc1 (stereo not shown)
5.00 to 6.00

Which value of pIC50 has been reported for CCC1N(c2ccc(F)cc2)C(=O)N(c2ccc(F)cc2)C1(O)c1cccc(OC(F)(F)F)c1 (stereo not shown) in the records?
> 6.00

====

Target: human CGT (Homo sapiens)
Sequence (Q16880 21-541): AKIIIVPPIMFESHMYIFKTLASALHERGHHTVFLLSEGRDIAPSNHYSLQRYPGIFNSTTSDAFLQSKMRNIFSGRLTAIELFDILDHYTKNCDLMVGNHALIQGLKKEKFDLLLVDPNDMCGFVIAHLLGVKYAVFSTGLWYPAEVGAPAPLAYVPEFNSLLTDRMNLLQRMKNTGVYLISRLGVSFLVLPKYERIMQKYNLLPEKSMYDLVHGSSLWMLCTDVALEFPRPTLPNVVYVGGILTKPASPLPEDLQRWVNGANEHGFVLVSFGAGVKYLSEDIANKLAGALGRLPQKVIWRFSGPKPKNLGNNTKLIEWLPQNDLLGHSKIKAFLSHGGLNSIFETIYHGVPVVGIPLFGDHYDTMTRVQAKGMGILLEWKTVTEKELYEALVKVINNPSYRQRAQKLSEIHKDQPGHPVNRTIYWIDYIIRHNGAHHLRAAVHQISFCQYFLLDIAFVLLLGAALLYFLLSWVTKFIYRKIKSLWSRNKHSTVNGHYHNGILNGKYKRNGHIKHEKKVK
Assay: Assay 1: CGT Enzymatic Assay (RapidFire/MS/MS, 0.01% Tween 80)
Format: biochemical
Conditions: Table 1, Compounds of Formula (I) and Formula (II); CGT enzymatic assay; read-out: IC50
MEASURED PROPERTY: IC50

Given the compound CN(C)CC1N(c2ccc(Cl)cc2)C(=O)N(c2ccc(Cl)cc2)C1(O)c1cccc(OC(F)(F)F)c1 (stereo not drawn) [Example 166] , what is its reported IC50?
< 1 µM

Reported IC50, compound COc1ccc(C2(O)C(=O)N(c3ccc(Br)cc3)C(=O)N2c2ccc(Br)cc2)cn1 (stereo not drawn) [Example 202] : ____
10 to 50 µM

Can you share its IC50? I mean this compound: O=C1N(c2ccc(Cl)cc2F)C(=O)C(O)(c2ccccc2)N1c1ccc(Cl)cc1F (stereo not drawn) [Compound 155]
> 50 µM

====

Hi there, I'd appreciate the recorded IC50 for every entry that follows.
target: human CGT (Homo sapiens, UniProt Q16880); test: Assay 1: CGT Enzymatic Assay (RapidFire/MS/MS, 0.01% Tween 80); assay type: biochemical; settings: Table 1, Compounds of Formula (I) and Formula (II); CGT enzymatic assay; read-out: IC50

Provide value of IC50 for this record tested with human CGT (Homo sapiens, UniProt Q16880): Cc1cccc([C@]2(C)C(O)N(c3ccc(Cl)cc3)C(=O)N2c2ccc(Cl)cc2)c1 (single isomer, unassigned) [Example 222-2]
< 1 µM

Test system human CGT (Homo sapiens, UniProt Q16880); read-out IC50; what value for O=c1n(-c2ccc(Br)cc2)cc(-c2ccc[nH]2)n1-c1ccc(Br)cc1 [Compound 256] ?
> 50 µM

Please provide the recorded IC50 for CC1N(c2ccc(C#N)cc2)C(=O)N(c2ccc(C#N)cc2)C1(O)c1cccc(OC(F)(F)F)c1 (centres unmarked) [Example 180] , tested on human CGT (Homo sapiens, UniProt Q16880).
1 to 10 µM

Could you share what IC50 was measured for C[C@]1(c2ccccc2)N(c2ccc(Cl)cc2)C(=O)N(c2ccc(Cl)cc2)[C@]1(O)c1ccccc1 [Compound 121-3] , tested on human CGT (Homo sapiens, UniProt Q16880)?
> 50 µM

So what IC50 did CC(O)c1cccc(C2(O)C(C)N(c3ccc(Cl)cc3)C(=O)N2c2ccc(Cl)cc2)c1 (centres unmarked) [Compound 137] get with human CGT (Homo sapiens, UniProt Q16880)?
< 1 µM

Record lookup: for human CGT (Homo sapiens, UniProt Q16880), what IC50 belongs to CC(C)(C)c1cccc(C2(O)CN(c3ccc(Cl)cc3)C(=O)N2c2ccc(Cl)cc2)c1 (centres unmarked) [Compound 128] ?
10 to 50 µM

Give the reported IC50 for O=C1N(c2ccc(Cl)cc2)C(c2ccccc2)C(O)(CO)N1c1ccc(Cl)cc1 (centres unmarked) [Example 218] (system: human CGT (Homo sapiens, UniProt Q16880)).
10 to 50 µM

Missing value: IC50, human CGT (Homo sapiens, UniProt Q16880), entry CCC1(O)C(=O)N(c2ccc(Br)cc2)C(=O)N1c1ccc(Br)cc1 (centres unmarked) [Compound 143] . Fill in?
10 to 50 µM

====

Biological target: human CGT (Homo sapiens, UniProt Q16880)
Sequence (Q16880 21-541): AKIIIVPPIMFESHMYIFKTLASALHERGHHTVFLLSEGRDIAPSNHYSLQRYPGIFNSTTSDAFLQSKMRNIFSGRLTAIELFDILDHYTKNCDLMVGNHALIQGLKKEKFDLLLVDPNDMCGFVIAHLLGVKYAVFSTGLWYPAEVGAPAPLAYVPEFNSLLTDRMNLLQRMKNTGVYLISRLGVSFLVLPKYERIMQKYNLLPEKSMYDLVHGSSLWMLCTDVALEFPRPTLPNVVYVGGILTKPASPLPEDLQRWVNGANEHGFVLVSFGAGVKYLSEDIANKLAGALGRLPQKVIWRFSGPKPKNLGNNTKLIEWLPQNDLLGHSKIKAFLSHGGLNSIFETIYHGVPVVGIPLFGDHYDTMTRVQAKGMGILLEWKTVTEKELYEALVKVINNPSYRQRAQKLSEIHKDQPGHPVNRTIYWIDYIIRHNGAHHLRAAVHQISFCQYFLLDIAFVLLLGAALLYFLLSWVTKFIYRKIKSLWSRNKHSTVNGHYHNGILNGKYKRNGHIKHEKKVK
Assay: Assay 1: CGT Enzymatic Assay (RapidFire/MS/MS, 0.01% Tween 80)
Type: biochemical
Settings: Table 1, Compounds of Formula (I) and Formula (II); CGT enzymatic assay; read-out: IC50
MEASURED PROPERTY: IC50

Item: CC[C@@H]1N(c2ccc(F)cc2)C(=O)N(c2ccc(F)cc2)C1(O)c1cccc(C(F)(F)F)c1 (single isomer, unassigned) [Compound 139-1] Test system: human CGT (Homo sapiens, UniProt Q16880) Read-out: IC50 Value: ?
1 to 10 µM

Observed IC50 on human CGT (Homo sapiens, UniProt Q16880) for CC(=O)c1cccc(C2(O)[C@@H](C)N(c3ccc(Cl)cc3)C(=O)N2c2ccc(Cl)cc2)c1 (stereo partly shown) [Compound 136-2] , please.
< 1 µM

Record lookup: for human CGT (Homo sapiens, UniProt Q16880), what IC50 belongs to COC[C@H]1N(c2ccc(Cl)cc2)C(=O)N(c2ccc(Cl)cc2)C1(O)c1cccc(C(F)(F)F)c1 (stereo partly shown) [Compound 92-2] ?
< 1 µM

Find IC50 (human CGT (Homo sapiens, UniProt Q16880)) for the entry CCC1N(c2ccc(Br)cc2)C(=O)N(c2ccc(Br)cc2)C1(O)c1cccc(OC(F)(F)F)c1 (stereo not shown) [Compound 83]
< 1 µM

All values here come from patent US20190134005A1.
